meta.source: PubChem BioAssay

testName: AGP1-GFP expression modulators, hit retest, confirmation, cell-based, flow cytometry, S. cerevisiae, cherry picks (AID 2273);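 also: median GFP channel fluorescence over the whole cell population gate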
experimentalParameters: S. cerevisiae AGP1-GFP strain, 3 h, at 10 µM
Exercise: for every item that follows, state its recorded GFP response, % of DMSO.
Express your answer in %, writing the number without its unit.

Item: O=C(C1CCN(Cc2nc(Cc3cccc(F)c3)no2)CC1)N1CCOCC1 | GFP response, % of DMSO: 103

Item: COc1cccc(C(=O)Nc2ccccc2)c1 | GFP response, % of DMSO: 95.2

Item: CCSC1=NCCN1S(=O)(=O)c1ccc(F)cc1 | GFP response, % of DMSO: 101

Item: CCOC(=O)C1CCCN(c2nc3c(C)cccn3c(=O)c2/C=C(\C#N)C(=O)NCc2ccco2)C1 (stereo not given) | GFP response, % of DMSO: 95.2

Item: Cc1cc(=O)[nH]c(-n2nc(C)cc2C)n1 | GFP response, % of DMSO: 99.8

Item: COC(=O)c1cccc(-n2c(CCC(=O)O)ccc2-c2cccs2)c1 | GFP response, % of DMSO: 103

Item: CCOC(=O)Cc1csc(NC(=O)c2sc3nc4ccc(CC)cc4cc3c2N)n1 | GFP response, % of DMSO: 107

Item: COc1cc(/C=C/C(=O)c2c(O)ccc3c(C)cc(=O)oc23)ccc1O | GFP response, % of DMSO: 92.5

Item: O=C(CSc1ccc(Cl)cc1)Nc1cccc(-c2nc3ccccc3[nH]2)c1 | GFP response, % of DMSO: 98

Item: O=C(COc1ccc(F)cc1Cl)Nc1nc(-c2ccccn2)cs1 | GFP response, % of DMSO: 98.8

Item: COc1ccc(/C=N/NC(=O)C2(C)NC(C)(C)Cc3ccccc32)cc1 (stereo not given) | GFP response, % of DMSO: 99.7

Item: CC(=O)Nc1ccc(NC(=O)CSc2ncc(C(=O)Nc3ccccc3)c(=O)n2C)cc1 | GFP response, % of DMSO: 103

Item: COC(=O)Cn1nc(-c2ccccc2)c2ccccc21 | GFP response, % of DMSO: 97.3

Item: COc1cc(/C=C2/N=C(c3ccccc3)OC2=O)c(F)cc1OCc1ccccc1 | GFP response, % of DMSO: 108

Item: COc1cc(/C=N/Nc2nc(C)cc(=O)[nH]2)ccc1O | GFP response, % of DMSO: 105

Item: COc1ccc(/C=N/Nc2nc(-c3cccnc3)nc3ccccc23)c(OC)c1 | GFP response, % of DMSO: 96.8

Item: CC1=CCC(C(=O)O)C(C(=O)Nc2ccc(-c3nc4ccc(C)cc4s3)cc2)C1 (stereo not given) | GFP response, % of DMSO: 101

Item: CCOC(=O)C(N)CSC1CC(=O)N(c2ccc(C(=O)OC)cc2)C1=O (stereo not given) | GFP response, % of DMSO: 98.1

Item: Cc1cc(NCCN2CCOCC2)n2ncc(-c3ccccc3)c2n1 | GFP response, % of DMSO: 89.3

Item: CCn1c(=O)c(C(=O)Nc2ccsc2C(=O)OC)c(O)c2ccccc21 | GFP response, % of DMSO: 103

Item: O=C(Nc1nc(-c2ccc(Cl)s2)cs1)c1cccs1 | GFP response, % of DMSO: 98.8

Item: OCC[n+]1ccc(/C=C/c2c[nH]c3ccccc23)cc1 | GFP response, % of DMSO: 104

Item: CCc1cccc2sc(N3CCN(C(=O)c4ccc([N+](=O)[O-])o4)CC3)nc12 | GFP response, % of DMSO: 108

Item: CCOc1ccccc1NC1=C(Cl)C(=O)N(Cc2ccccc2)C1=O | GFP response, % of DMSO: 98.5

Item: CC(=O)[C@@]1(O)CC[C@H]2[C@@H]3CCC4=CC(=O)CC[C@]4(C)[C@H]3CC[C@@]21C | GFP response, % of DMSO: 96.5

Item: CCCc1nn(C)c2c1C(c1cccnc1)C(C#N)=C(N)O2 (stereo not given) | GFP response, % of DMSO: 98.3

Item: O=[N+]([O-])c1ccc(N=Nc2c(Cl)cc(O)cc2Cl)cc1 | GFP response, % of DMSO: 91.4

Item: C=CCOc1cccc(C(=O)/C=C2/C(=O)Nc3ccccc32)c1 | GFP response, % of DMSO: 105

Item: COC(=O)c1ccc(N2C(=O)CC(Sc3n[nH]c(C)n3)C2=O)cc1 (stereo not given) | GFP response, % of DMSO: 101

Item: Cc1ccccc1N1C(=O)CC(Sc2nnc(-c3ccccc3)o2)C1=O (stereo not given) | GFP response, % of DMSO: 102

Item: COCC(=O)Nc1cc([N+](=O)[O-])ccc1C | GFP response, % of DMSO: 98.4

Item: FC(F)(F)c1cc(-c2cccs2)nc2cc(-c3cccs3)nn12 | GFP response, % of DMSO: 95.1

Item: Cc1noc2ncnc(Sc3ccc(Br)cc3)c12 | GFP response, % of DMSO: 98.8

Item: c1cnc2c(SCc3ccc(-c4nnco4)cc3)cccc2c1 | GFP response, % of DMSO: 104

Item: COc1ccc(NC(=O)c2ccccc2NC(=O)c2ccccc2)cc1 | GFP response, % of DMSO: 102

Item: CCC(=O)Oc1oc(-c2ccccc2)nc1C=Nc1ccccc1OC | GFP response, % of DMSO: 95.5

Item: O=c1oc2cc(Oc3c([N+](=O)[O-])cc(C(F)(F)F)cc3[N+](=O)[O-])ccc2c2c1CCCC2 | GFP response, % of DMSO: 108

Item: Cc1cc(-n2nc(C)cc2C)n2ncc(-c3ccccc3)c2n1 | GFP response, % of DMSO: 102

Item: CS(=O)(=O)N1N=C(c2ccco2)CC1c1ccc(Br)cc1 (stereo not given) | GFP response, % of DMSO: 96.8

Item: O=C(COC(=O)c1cccs1)Nc1nc(-c2ccccc2)cs1 | GFP response, % of DMSO: 99.1

Item: Cc1cccc(CSc2cccc3cccnc23)c1 | GFP response, % of DMSO: 89.1

Item: CCOC(=O)CCS(=O)(=O)c1nc(-c2ccccc2)cc(C(F)(F)F)n1 | GFP response, % of DMSO: 127

Item: Cc1ccc(N(C(=O)CNC(=O)c2ccco2)C(C(=O)NC2CCCC2)c2cccnc2)cc1C (stereo not given) | GFP response, % of DMSO: 105

Item: CCS(=O)(=O)Nc1cccc(C2=NN(S(C)(=O)=O)C(c3ccccc3)C2)c1 (stereo not given) | GFP response, % of DMSO: 112

Item: Cc1sc(NC(=O)c2ccco2)nc1-c1ccccc1 | GFP response, % of DMSO: 89.5
